System: Plasmodium falciparum
protocol_details: GSK_TCMDC: Inhibition of Plasmodium falciparum 3D7 in whole erythrocytes, using parasite LDH activity as an index of growth.
Assay type: functional, organism-based
condition_label: Plasmodium falciparum, 3D7
Would you kindly list log10(XC50) for each of these compounds?
Base-10 log of XC50, unit nM.

Give measured log10(XC50) for every item shown.
1. CCNc1cc(C(=O)N[C@@H](Cc2ccccc2)[C@H](O)CNC2CCC(C)(C)C2)cc(N2CCCCS2(=O)=O)c1 (some centres undefined)
2. Cc1ccccc1C1CCN(C2CCC(NC(=O)c3ccc(-c4cccc(C(F)(F)F)c4)o3)CC2)CC1 (centres undefined)

1. 2.14
2. 2.54

Batch request: log10(XC50) per item, same order as input.
1. CC(C)C1c2ccc(O)cc2CC2C(=O)N(C3CCCCC3)C(=O)N21 (centres undefined)
2. CN(C)CCn1c(=N)n(CC(O)c2ccc(Cl)c(Cl)c2)c2ccccc21 (centres undefined)
3. CCNC[C@@H](O)[C@H](Cc1ccccc1)NC(=O)c1cc2c3c(c1)c(CC)cn3CCS(=O)(=O)N2C
4. CC1CNC(c2ccc(NC(=O)c3ccc(C(=O)Nc4ccc(C5=NC(C)CN5)cc4)cc3)cc2)=N1 (centres undefined)
5. CS(=O)(=O)c1cccc(-c2cnc3[nH]cc(-c4cccc(CCN)c4)c3c2)c1
6. O=C(NC1CCC(N2CCC(Cc3ccc(F)cc3)CC2)CC1)c1cc2ccccc2[nH]1 (centres undefined)
7. CCCCCN1CCC(CNS(=O)(=O)c2ccc(C(=O)Nc3cccc(C(F)(F)F)c3)cc2)CC1

1. 2.95
2. 2.90
3. 2.91
4. 1.53
5. 3.19
6. 2.94
7. 2.87

Count: 3. Required value per item: log10(XC50).
1. CCCc1cc(=O)[nH]c(-n2nc(C)cc2NC(=O)c2cc3ccccc3o2)n1
2. CN1CCCN(Cc2ccc(-c3ccc(NC(=O)c4ccc(C#N)cc4)cc3)cc2)CC1
3. CC(=O)Nc1ccc(C2NC(=O)NC(c3ccccc3)=C2c2nc3ccccc3s2)cc1 (centres undefined)

[3.05, 3.01, 3.05]

Give one value of log10(XC50) per listed compound.
1. COc1ccc2nccc([C@@H](O)CN3CCC(NCc4ccc5c(c4)NC(=O)C(C)S5)CC3)c2c1 (some centres undefined)
2. O=c1cc(NCCCNCc2cccc3c2OC(F)(F)O3)[nH]c2ccccc12
3. CN(C)S(=O)(=O)c1ccc(Nc2nc(NCCC3C=NC=N3)nc3cc[nH]c(=O)c23)cc1 (centres undefined)
4. CCCc1ccc(NC(=O)c2cccc(CN3CCCN(Cc4cccc(C#N)c4)CC3)c2)cc1
5. NC1CCN(CCNCc2cccc(-c3ccc(-c4nc5cc(F)ccc5[nH]4)cc3)c2)C1 (centres undefined)

1: 2.30; 2: 2.98; 3: 2.97; 4: 2.99; 5: 2.87

// for each compound in input: emit log10(XC50)
1. COc1ccc(CNCc2ccc(-c3ccc(-c4nc5cc(C(F)(F)F)ccc5[nH]4)cc3)cc2)cc1
2. N=C(N)NN=Cc1ccccc1OCc1ccccc1Cl

1. 2.13
2. 2.86
